So I've got a bunch of compounds here, and I need their MIC values.
tested on: Staphylococcus aureus strain ATCC 29213 (wild type); assay: MIC of the compounds used alone, microdilution in a liquid medium (CLSI); assay type: cell-based; details: Staphylococcus aureus, ATCC29213; antibiotic alone (second value of cell); S. aureus ATCC 29213; read-out: Initial MICs
Give bare numbers, in µg/mL.

- compound: "CC(=O)NC[C@H]1CN(c2ccc(N3CCOCC3)c(F)c2)C(=O)O1 [Linezolid]"
  observedResult: 2
- compound: "NCC[C@H](O)C(=O)N[C@@H]1C[C@H](N)[C@@H](O[C@H]2O[C@H](CN)[C@@H](O)[C@H](O)[C@H]2O)[C@H](O)[C@H]1O[C@H]1O[C@H](CO)[C@@H](O)[C@H](N)[C@H]1O [Amikacin]"
  observedResult: 1

Recall and state the measured MIC for [H]/N=C(/N)N[C@H]1[C@H](O)[C@@H](O)[C@H](O[C@@H]2O[C@@H](C)[C@](O)(C=O)[C@H]2O[C@@H]2O[C@@H](CO)[C@H](O)[C@@H](O)[C@@H]2NC)[C@@H](N/C(N)=N\[H])[C@@H]1O [Streptomycin] . 4

###

test system: EcR1: Penicillinase-Producing Escherichia coli without Associated Resistance; experiment: Antibiogram, MIC by the VITEK 2 system; assay type: cell-based; details: EcR1, MIC against Cc EUCAST 2011
valueType: EUCAST Interpretation

Examples with answers:
- cpdSmiles: "CC(=O)OCC1=C(C(=O)O)N2C(=O)[C@@H](NC(=O)Cc3cccs3)[C@H]2SC1"
  target: "EcR1: Penicillinase-Producing Escherichia coli without Associated Resistance"
  EUCAST Interpretation: "Susceptible"
- cpdSmiles: "CO/N=C(\\C(=O)N[C@@H]1C(=O)N2C(C(=O)O)=C(COC(C)=O)CS[C@H]12)c1csc(N)n1"
  target: "EcR1: Penicillinase-Producing Escherichia coli without Associated Resistance"
  EUCAST Interpretation: "Susceptible"
- cpdSmiles: "CCN[C@@H]1C[C@H](N)[C@@H](O[C@H]2OC(CN)=CC[C@H]2N)[C@H](O)[C@H]1O[C@H]1OC[C@](C)(O)[C@H](NC)[C@H]1O"
  target: "EcR1: Penicillinase-Producing Escherichia coli without Associated Resistance"
  EUCAST Interpretation: "Susceptible"
- cpdSmiles: "NC[C@H]1O[C@H](O[C@H]2[C@H](O)[C@@H](O[C@H]3O[C@H](CO)[C@@H](O)[C@H](N)[C@H]3O)[C@H](N)C[C@@H]2N)[C@H](N)C[C@@H]1O"
  target: "EcR1: Penicillinase-Producing Escherichia coli without Associated Resistance"
  EUCAST Interpretation: "Susceptible"

Provide each entry's EUCAST Interpretation from the list below.
1. NCC[C@H](O)C(=O)N[C@@H]1C[C@H](N)[C@@H](O[C@H]2O[C@H](CN)[C@@H](O)[C@H](O)[C@H]2O)[C@H](O)[C@H]1O[C@H]1O[C@H](CO)[C@@H](O)[C@H](N)[C@H]1O
2. CC1(C)S[C@@H]2[C@H](NC(=O)[C@H](C(=O)O)c3ccsc3)C(=O)N2[C@H]1C(=O)O

Susceptible
Resistant

###

system: EcR2: Cephalosporinase-Hyperproducing Strain of Escherichia coli; assay: Antibiogram, MIC by the VITEK 1 system; format: cell-based; settings: Escherichia coli; EcR2; Table B2; MIC; read-out: MIC
So I've got a bunch of compounds here, and I need their MIC values.

Examples with answers:
- cpdSmiles: "C[C@@H](O)[C@H]1C(=O)N2C(C(=O)O)=C(SCCN=CN)C[C@H]12"
  MIC: "≤ 0.5 µg/mL"
- cpdSmiles: "CC(=O)OCC1=C(C(=O)O)N2C(=O)[C@@H](NC(=O)Cc3cccs3)[C@H]2SC1"
  MIC: "≥ 64 µg/mL"

Let us move to another entry and its MIC.
Recall and state the measured MIC for CC1(C)S[C@@H]2[C@H](NC(=O)[C@H](C(=O)O)c3ccsc3)C(=O)N2[C@H]1C(=O)O . 32 µg/mL
